# System: multiple myeloma RPMI 8226 cell line
# Type: cell-based, human
# DETAILS: ±SD
OBSERVED PROPERTY: IC50 (µM)
Note: unit µM is implicit; provide only the numeric part.

I looked up N.N.[Cl][Pt][Cl] [Cisplatin, Cis-diamminedichloroplatinum(II)] and its IC50 for multiple myeloma RPMI 8226 cell line was 1.9

----------
# Tested on: A2780 ovarian cancer cell line (cisplatin sensitive)
# PROTOCOL DESCRIPTION: In vitro cytotoxicity assay (MTS), A2780
# Format: cell-based, human
# DETAILS: MTS after 72 hours, ±SD
OBSERVED PROPERTY: IC50 (µM)
Note: unit µM is implicit; provide only the numeric part.

Value of IC50 reported for the compound N.N.[Cl][Pt][Cl] [Cisplatin, Cis-diamminedichloroplatinum(II)] is 3.1

----------
# Tested on: colon HCT-116 cells
# Format: cell-based, human
# DETAILS: Cell Titer Glow, 48 hours post drug treatment, ±SD, read-out: IC50 values in μM (±SD), HTC−116
OBSERVED PROPERTY: IC50

Value of IC50 reported for the compound N.N.[Cl][Pt][Cl] [Cisplatin, Cis-diamminedichloroplatinum(II)] is 5.5 µM
